Just for reference, patent US6825209B2 is where these values come from.

Biological target: human CB1 receptor (Homo sapiens, UniProt P21554)
Construct: expressed in transfected cells; host or cells: HEK-293
Sequence (P21554 whole entry): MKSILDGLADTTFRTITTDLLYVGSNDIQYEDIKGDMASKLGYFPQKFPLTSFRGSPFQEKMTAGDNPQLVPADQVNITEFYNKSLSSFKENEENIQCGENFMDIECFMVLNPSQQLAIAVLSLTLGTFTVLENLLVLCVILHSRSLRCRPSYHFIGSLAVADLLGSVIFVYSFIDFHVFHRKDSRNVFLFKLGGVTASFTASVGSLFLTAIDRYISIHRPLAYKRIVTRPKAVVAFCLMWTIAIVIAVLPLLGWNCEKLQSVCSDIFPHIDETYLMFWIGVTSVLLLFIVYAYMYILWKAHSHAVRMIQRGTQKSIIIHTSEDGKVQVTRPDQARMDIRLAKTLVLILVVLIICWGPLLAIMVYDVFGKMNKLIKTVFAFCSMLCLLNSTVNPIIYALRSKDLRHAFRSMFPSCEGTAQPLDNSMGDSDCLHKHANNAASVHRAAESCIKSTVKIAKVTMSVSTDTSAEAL
Assay: Radioligand displacement in human CB1 receptor-transfected cells (HEK-293)
Type: binding
Details: human CB1 transfected cells; 3H-SR141716A; Table 5, parallel synthesis analogs
Protocol: Human CB1 receptor affinity. The alkyl amide analogs of the present invention were examined using transfected cell lines expressing the human CB1 receptor (Table 3). Methods—binding assay in transfected cell lines. The methods used for performing binding assays in transfected cells expressing human CB1 or CB2 receptors are those used above. […] Data analysis. Saturation and displacement data were analyzed by unweighted nonlinear regression of receptor binding data. […]
property: Max. Disp. %, 3H-SR141716A (%)

INSERT INTO results (compound, property, unit_label, quantitative_result) VALUES
  ('Cc1c(C(=O)N2CCc3ccccc3C2)nn(-c2ccc(Cl)cc2Cl)c1-c1ccc(Cl)cc1', 'Max. Disp. %, 3H-SR141716A', '%', 90.4),
  ('COc1ccc(NC(=O)c2nn(-c3ccc(Cl)cc3Cl)c(-c3ccc(Cl)cc3)c2C)cc1', 'Max. Disp. %, 3H-SR141716A', '%', 87.3),
  ('Cc1c(C(=O)N2CCC(O)(c3ccccc3)CC2)nn(-c2ccc(Cl)cc2Cl)c1-c1ccc(Cl)cc1', 'Max. Disp. %, 3H-SR141716A', '%', 99.2),
  ('Cc1c(C(=O)NCCc2ccc(O)cc2)nn(-c2ccc(Cl)cc2Cl)c1-c1ccc(Cl)cc1', 'Max. Disp. %, 3H-SR141716A', '%', 99.5),
  ('Cc1c(C(=O)NC(C)Cc2ccc(Cl)cc2)nn(-c2ccc(Cl)cc2Cl)c1-c1ccc(Cl)cc1 (centres unmarked)', 'Max. Disp. %, 3H-SR141716A', '%', 100),
  ('CCCCCC(CC)NC(=O)c1nn(-c2ccc(Cl)cc2Cl)c(-c2ccc(Cl)cc2)c1C (centres unmarked)', 'Max. Disp. %, 3H-SR141716A', '%', 95.9),
  ('COc1ccc(CCNC(=O)c2nn(-c3ccc(Cl)cc3Cl)c(-c3ccc(Cl)cc3)c2C)cc1', 'Max. Disp. %, 3H-SR141716A', '%', 96.3),
  ('CCCCCCCCCC(C)NC(=O)c1nn(-c2ccc(Cl)cc2Cl)c(-c2ccc(Cl)cc2)c1C (centres unmarked)', 'Max. Disp. %, 3H-SR141716A', '%', 90.0);

====

Target: cannabinoid receptors (Mus musculus)
Construct: mediated by cannabinoid receptors located on prejunctional neurones; from tissue; host or cells: mouse isolated vas deferens
Sequence (P47746 whole entry): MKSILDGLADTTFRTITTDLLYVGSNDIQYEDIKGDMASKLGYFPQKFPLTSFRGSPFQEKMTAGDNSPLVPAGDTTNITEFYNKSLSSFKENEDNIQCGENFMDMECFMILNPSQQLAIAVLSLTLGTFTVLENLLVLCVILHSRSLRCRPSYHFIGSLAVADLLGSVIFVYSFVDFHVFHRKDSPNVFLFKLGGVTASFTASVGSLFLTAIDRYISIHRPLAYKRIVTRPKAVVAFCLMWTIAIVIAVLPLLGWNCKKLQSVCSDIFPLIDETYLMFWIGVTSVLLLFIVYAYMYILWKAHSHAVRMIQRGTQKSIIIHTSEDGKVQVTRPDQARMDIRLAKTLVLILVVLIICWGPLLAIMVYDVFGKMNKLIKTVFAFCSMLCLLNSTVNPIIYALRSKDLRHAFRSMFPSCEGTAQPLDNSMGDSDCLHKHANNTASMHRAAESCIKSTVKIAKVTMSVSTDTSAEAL
Assay: Mouse vas deferens tissue assay (WIN55212-2 as agonist)
Conditions: isolated mouse vas deferens; WIN55212-2 as agonist; Schild equation; read-out: Kb
Experimental: Pharmacological characterization in isolated mouse vas deferens. Introduction. The mouse isolated vas deferens can be used to determine both the potency and efficacy (maximum degree of inhibition produced) of cannabinoid receptor agonists. Because of its high sensitivity, this assay usually requires only microgram quantities of test material. […] Methods. […] All contractions were recorded isometrically. […]
property: Kb (nM)

INSERT INTO assay_data (molecule, property, quantitative_result) VALUES
  ('CCCCCCNC(=O)c1nn(-c2ccc(Cl)cc2Cl)c(-c2ccc(Cl)cc2)c1C [MF9725-132-25]', 'Kb', 15.4),
  ('CCCCNC(=O)c1nn(-c2ccc(Cl)cc2Cl)c(-c2ccc(Cl)cc2)c1C [MF9725-64-17]', 'Kb', 21.2),
  ('Cc1c(C(=O)NN2CCOCC2)nn(-c2ccc(Cl)cc2Cl)c1-c1ccc(Cl)cc1 [MF9725-33D]', 'Kb', 12.5),
  ('Cc1c(C(=O)NC2CCCCC2)nn(-c2ccc(Cl)cc2Cl)c1-c1ccc(Cl)cc1 [MF9725-66-11]', 'Kb', 1.2);
